Target: α1-adrenergic receptor
Experiment: α1-adrenergic receptor binding ([3H] prazosin binding site, calf cerebral cortex)
Conditions: [3H] prazosin binding site, calf cerebral cortex
Procedure: The α1 - and α2 -adrenergic receptor binding was determined for 1-(3-halo-2-pyridinyl)piperazines and a number of other structurally related compounds shown in Table I. Extent of binding to the α1 -adrenergic receptor was determined by the method of Greengrass and Bremner, Eur. J. Pharmacol., 55, 323 (1979) and is expressed in Table I as Ki, representing the affinity of each compound for the [^3 H] prazosin binding site in calf cerebral cortex.
pKi: −log10 of the molar value.
Each entry gets No if its pKi stays under 6, and Yes if its pKi is 6 or above.

Clc1cncc(N2CCNCC2)n1 :: No
CN1CCN(c2ncccc2Br)CC1 :: Yes
Fc1cccnc1N1CCNCC1 :: No
Clc1cccnc1N1CCNCC1 :: No
c1ccc(N2CCNCC2)nc1 :: No
Clc1nccnc1N1CCNCC1 :: No
Ic1cccnc1N1CCNCC1 :: No

# input For this molecule, is measured pKi 6 or higher? `Clc1cccc(N2CCNCC2)n1`
# output Yes

---

Target: α2-adrenergic receptor (Bos taurus, UniProt Q28838)
Construct: from tissue; host or cells: calf cerebral cortex
Sequence (Q28838 1-468): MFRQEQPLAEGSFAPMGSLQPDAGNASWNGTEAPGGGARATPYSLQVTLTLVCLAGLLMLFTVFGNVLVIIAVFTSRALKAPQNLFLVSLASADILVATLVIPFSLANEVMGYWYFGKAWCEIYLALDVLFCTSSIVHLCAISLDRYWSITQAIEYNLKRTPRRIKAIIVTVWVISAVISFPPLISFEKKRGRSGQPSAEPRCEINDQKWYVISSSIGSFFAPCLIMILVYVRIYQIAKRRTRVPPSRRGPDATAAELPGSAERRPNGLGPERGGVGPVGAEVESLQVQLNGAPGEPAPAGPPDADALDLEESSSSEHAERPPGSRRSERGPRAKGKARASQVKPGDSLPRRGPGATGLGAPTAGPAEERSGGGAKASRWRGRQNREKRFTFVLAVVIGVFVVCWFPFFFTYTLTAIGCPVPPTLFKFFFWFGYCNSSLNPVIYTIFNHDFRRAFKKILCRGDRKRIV
Experiment: α2-adrenergic receptor binding ([3H] clonidine binding site, calf cerebral cortex)
endpoint: pKi
// pKi here means minus log10 of the molar concentration (mol/L)

Below are worked cases with known answers.
Clc1ccc(N2CCNCC2)nc1 :: 6.00
Clc1cncc(N2CCNCC2)n1 :: 6.90

Here's the next entry for you.
The reported value for `Fc1cccnc1N1CCNCC1` in terms of pKi is 8.08

---

Target: α2-adrenergic receptor (Bos taurus, UniProt Q28838)
Construct: from tissue; host or cells: calf cerebral cortex
Sequence (Q28838 1-468): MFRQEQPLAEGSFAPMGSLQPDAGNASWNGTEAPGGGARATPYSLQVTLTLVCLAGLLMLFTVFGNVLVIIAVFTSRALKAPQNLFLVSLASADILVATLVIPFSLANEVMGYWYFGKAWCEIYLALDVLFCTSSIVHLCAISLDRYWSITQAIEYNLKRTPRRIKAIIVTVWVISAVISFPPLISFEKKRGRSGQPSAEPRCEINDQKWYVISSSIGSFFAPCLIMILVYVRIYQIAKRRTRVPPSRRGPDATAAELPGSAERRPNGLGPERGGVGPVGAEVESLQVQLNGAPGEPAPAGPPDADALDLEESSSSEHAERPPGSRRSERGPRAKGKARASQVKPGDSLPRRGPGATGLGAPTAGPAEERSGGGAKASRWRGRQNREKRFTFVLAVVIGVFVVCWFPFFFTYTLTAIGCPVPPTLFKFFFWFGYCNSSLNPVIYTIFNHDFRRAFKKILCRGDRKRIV
Test: α2-adrenergic receptor binding ([3H] clonidine binding site, calf cerebral cortex)
Conditions: [3H] clonidine binding site, calf cerebral cortex; read-out: Adrenergic Binding Ki α2
endpoint: pKi
To interpret pKi, take it as minus log10 of a concentration measured in moles per litre.

Reference set (6 entries):
Brc1cccnc1N1CCNCC1 :: 7.96
Clc1nccnc1N1CCNCC1 :: 6.80
c1ccc(N2CCNCC2)nc1 :: 7.43
Clc1cccnc1N1CCNCC1 :: 8.10
Ic1cccnc1N1CCNCC1 :: 7.38
Clc1cccc(N2CCNCC2)n1 :: 7.74

API: the following record is the query input.
Item `CN1CCN(c2ncccc2Br)CC1` was tested on α2-adrenergic receptor (Bos taurus, UniProt Q28838); the reported pKi is 8.54
